Assay: SK-BR-3 cell growth inhibitors, pilot screen, 24 h, human (AID 572);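 note: compound exposure lasted between 18 and 24 h rather than exactly 24 h; 100% = carrier-treated control wells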
Conditions: SK-BR-3 viability, CellTiter-Glo luminescence, at 10 µM, stronger effect = lower value
measure: viability (%)

{"compound": "Cc1nn(Cc2ccccc2)c2c1C(c1ccncc1)C(C#N)=C(N)O2 (configuration not stated)", "unit-annotation": "%", "meas-value": 96}
{"compound": "Cc1ccc(C(=O)/C=C/Nc2cccc(O)c2)cc1", "unit-annotation": "%", "meas-value": 111}
{"compound": "Cc1nc(N)[nH]c(=O)c1CCC(=O)OCC(C)C", "unit-annotation": "%", "meas-value": 107}
{"compound": "CCOc1ccccc1C(=O)NCC(=O)OCC(=O)N1C(C)CCCC1C (configuration not stated)", "unit-annotation": "%", "meas-value": 98.5}
{"compound": "CC(C)n1nnnc1SCC(=O)Nc1ccccc1N1CCOCC1", "unit-annotation": "%", "meas-value": 53}
{"compound": "O=C(NO)c1ccccc1O", "unit-annotation": "%", "meas-value": 109}
{"compound": "CCOCCCNC(=O)C1CC(=O)N(C2CCCC2)C1 (configuration not stated)", "unit-annotation": "%", "meas-value": 98}
{"compound": "COc1cc(C2Oc3cc(C4Oc5cc(O)cc(O)c5C(=O)C4O)ccc3OC2CO)ccc1O (configuration not stated)", "unit-annotation": "%", "meas-value": 106}
{"compound": "COC(=O)c1ccccc1OCC(=O)NC1CCCCC1", "unit-annotation": "%", "meas-value": 96}
{"compound": "CCN1CCN(C(=O)N[C@@H](C(=O)N[C@@H]2C(=O)N3[C@@H]2SC(C)(C)[C@@H]3C(=O)O)c2ccccc2)C(=O)C1=O", "unit-annotation": "%", "meas-value": 96}
{"compound": "c1ccc2c(NC3CCCC3)nnc(NC3CCCC3)c2c1", "unit-annotation": "%", "meas-value": 60}
{"compound": "Cc1nnc(SCCCn2c(N3CCCCC3)nc3c2c(=O)[nH]c(=O)n3C)s1", "unit-annotation": "%", "meas-value": 104}
{"compound": "C#CCSc1nc(-c2cccs2)ccc1C#N", "unit-annotation": "%", "meas-value": 91}
{"compound": "Cn1c(=O)[nH]c(=O)c2c1nc(NCCCn1ccnc1)n2Cc1ccccc1", "unit-annotation": "%", "meas-value": 89}
{"compound": "Cc1cccc(NC(=O)CC2CCC2)c1", "unit-annotation": "%", "meas-value": 87}
{"compound": "Cc1ccnc(N2CCN(C(=O)CSc3nc4ccccc4nc3N3CCCCC3)CC2)c1", "unit-annotation": "%", "meas-value": 109}
{"compound": "O=S(=O)(NCc1ccc(Cl)cc1)c1cnc[nH]1", "unit-annotation": "%", "meas-value": 103}
{"compound": "COC(=O)c1ccnc(/C=N/O)c1", "unit-annotation": "%", "meas-value": 95}
{"compound": "CCOc1ccccc1OCCCCN1CCCC1", "unit-annotation": "%", "meas-value": 87}
{"compound": "COc1cccc(C(=O)Nc2c(C(N)=O)oc3ccccc23)c1", "unit-annotation": "%", "meas-value": 86.5}
{"compound": "O=C(COC(=O)c1cc(S(=O)(=O)N2CCOCC2)ccc1O)NCC1CCCO1 (configuration not stated)", "unit-annotation": "%", "meas-value": 91.5}
{"compound": "CCOc1ccccc1N1CC(O)=C(c2nc3ccccc3s2)C1=N", "unit-annotation": "%", "meas-value": 97}
{"compound": "CCC(C(=O)N1CCc2cc(OC)c(OC)cc2C1)c1ccccc1 (configuration not stated)", "unit-annotation": "%", "meas-value": 99}
{"compound": "Cn1cnnc1Sc1nc2c(c(=O)n(C)c(=O)n2C)n1Cc1ccccc1Cl", "unit-annotation": "%", "meas-value": 72}
{"compound": "O=C1NCCCc2c1no[n+]2[O-]", "unit-annotation": "%", "meas-value": 100}
{"compound": "Cc1ccc2nc3c(cc2c1)CN(Cc1ccco1)C(=NCC1CCCO1)S3 (configuration not stated)", "unit-annotation": "%", "meas-value": 100}
{"compound": "CCOC(=O)c1sc(NC(=O)CSc2nnnn2-c2ccccc2)c(C(=O)OCC)c1C", "unit-annotation": "%", "meas-value": 80}
{"compound": "O=C(NCc1ccc(Cl)cc1)c1ccc(COCC(F)(F)F)o1", "unit-annotation": "%", "meas-value": 100}
{"compound": "CN1[C@@H]2CC(OC(=O)[C@H](CO)c3ccccc3)C[C@H]1[C@@H]1O[C@@H]12 (some centres not stated)", "unit-annotation": "%", "meas-value": 104}
{"compound": "CN/C=C1\\C(=O)C(C)(C)Oc2ccc3ccc(=O)oc3c21", "unit-annotation": "%", "meas-value": 112}
{"compound": "COc1ccc(CCN(C)CCCC(C#N)(c2cc(OC)c(OC)c(OC)c2)C(C)C)cc1OC (configuration not stated)", "unit-annotation": "%", "meas-value": 85}
{"compound": "O=C(Nc1ccc(NC(=O)C2CC2)cn1)c1ccccc1Cl", "unit-annotation": "%", "meas-value": 101}
{"compound": "Cc1cc(C(C)(C)C)cc(C)c1CC1=NCCN1", "unit-annotation": "%", "meas-value": 120}
{"compound": "CCCCCCCCCCCCCCCC(O)C(N)CO (configuration not stated)", "unit-annotation": "%", "meas-value": 60}
{"compound": "COc1cccc(C(=O)NC2=NCCS2)c1", "unit-annotation": "%", "meas-value": 109}
{"compound": "CCCCC(=NCCO)C1=C(O)C(C(=O)OC)C(C)(C)CC1=O (configuration not stated)", "unit-annotation": "%", "meas-value": 90.5}
{"compound": "OCCN1CCN(CCCN2c3ccccc3Sc3ccc(Cl)cc32)CC1", "unit-annotation": "%", "meas-value": 53}
{"compound": "COc1ccc(-c2nc(SC)n(S(=O)(=O)c3ccccc3)n2)cc1", "unit-annotation": "%", "meas-value": 80}
{"compound": "Cc1ccc2cc(CN(CC(C)C)C(=O)C3CCCO3)c(=O)[nH]c2c1 (configuration not stated)", "unit-annotation": "%", "meas-value": 95}
{"compound": "COc1ccc(C(=O)NCCC(C)C)cc1S(=O)(=O)N1CCOCC1", "unit-annotation": "%", "meas-value": 98}
{"compound": "CSC(=O)CC(=O)NC(=O)c1ccccc1", "unit-annotation": "%", "meas-value": 102}
{"compound": "Clc1ccccc1CN1CCc2sccc2C1", "unit-annotation": "%", "meas-value": 95}
{"compound": "O=C(c1cccc(C(=O)N2CCN(c3ccc(F)cc3)CC2)c1)N1CCN(c2ccc(F)cc2)CC1", "unit-annotation": "%", "meas-value": 110}
{"compound": "CCCC1(CCC)NC(=O)NC1=O", "unit-annotation": "%", "meas-value": 121}
{"compound": "CCOc1ccccc1C(=O)Nn1c(C2CCC2)nc2ccccc2c1=O", "unit-annotation": "%", "meas-value": 91}
{"compound": "N#CC1=C(SCC(=O)NC23CC4CC(CC(C4)C2)C3)NC(=O)C(C#N)C12CCCCC2 (configuration not stated)", "unit-annotation": "%", "meas-value": 74}
{"compound": "CN(C)c1nc(N(C)C)nc(N(C)C)n1", "unit-annotation": "%", "meas-value": 95}
